Each recorded value in this set is attributed to patent US4448788A.

assay: Toxicity (LD50, method of Reed and Muench); conditions: rat, in vivo; intravenous, rats observed for 7 days
experimental.readout: LD50 at 168 h (mg/kg)
The reply should be a number in mg/kg, with the unit left off.

Any idea what its LD50 at 168 h is? The compound is `CC1(C)[C@@H](OC(=O)/C=C\C(=O)O)CC[C@]2(C)[C@H]3CC=C4[C@@H]5C[C@@](C)(C(=O)O)CC[C@]5(C)CC[C@@]4(C)[C@]3(C)CC[C@@H]12` 54.2
